Target: 17-beta-hydroxysteroid dehydrogenase type 3 (Rattus norvegicus) (UniProt O54939)
Sequence (whole entry): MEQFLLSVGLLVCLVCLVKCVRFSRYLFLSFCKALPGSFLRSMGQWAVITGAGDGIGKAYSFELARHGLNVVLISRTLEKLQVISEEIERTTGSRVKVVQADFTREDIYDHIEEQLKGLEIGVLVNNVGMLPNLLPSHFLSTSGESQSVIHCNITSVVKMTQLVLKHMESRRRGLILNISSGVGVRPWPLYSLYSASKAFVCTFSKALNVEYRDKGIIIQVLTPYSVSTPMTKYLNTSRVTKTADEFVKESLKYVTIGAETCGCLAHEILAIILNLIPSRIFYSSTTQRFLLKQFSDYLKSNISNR
Assay: Inhibition of 17beta-HSD3 in rat testes microsomes using [14C]-4-androstene-3,17-dione as substrate measured based on 4% of initial enzyme transformation at 10 uM after 2 hrs
Conditions: Testis
Catalogue of molecules with associated inhibition

{"test-smiles": "C[C@@H]1CN(S(=O)(=O)c2ccccc2C(F)(F)F)[C@@H](C)CN1C[C@@]1(O)CC[C@@]2(C)[C@@H](CC[C@@H]3[C@@H]2CC[C@]2(C)C(=O)CC[C@@H]32)C1", "reading-unit": "%", "inhibition": 97.1}
{"test-smiles": "C[C@]12CC[C@]3(CN[C@H](Cc4ccccc4)C(=O)O3)C[C@@H]1CC[C@@H]1[C@@H]2CC[C@]2(C)C(=O)CC[C@@H]12", "reading-unit": "%", "inhibition": 70.6}
{"test-smiles": "COC(=O)CN1C[C@]2(CC[C@@]3(C)[C@@H](CC[C@@H]4[C@@H]3CC[C@]3(C)C(=O)CC[C@@H]43)C2)OC1=O", "reading-unit": "%", "inhibition": 80.8}

Provenance of the data: ChEMBL document CHEMBL3603811
